Biological target: BmorPBP1 immobilized on reduced graphene oxide field-effect transistor (Bombyx mori, UniProt P34174)
Construct: polyhistidine (his-tag, from pET15b) (N); made in house; host or cells: Escherichia coli
Sequence (P34174 23-164): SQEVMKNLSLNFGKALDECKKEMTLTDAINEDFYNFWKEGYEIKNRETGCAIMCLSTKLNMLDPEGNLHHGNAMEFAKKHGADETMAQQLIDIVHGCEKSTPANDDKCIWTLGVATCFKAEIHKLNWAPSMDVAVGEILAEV
Test: BmorPBP1-functionalized rGO-FET biosensor (titration and kinetic runs, Langmuir model)
Assay type: binding
Conditions: immobilized protein, pH 8.0, Langmuir isotherm fit, read-out: Sensor Data Kd, Titration
OUTCOME MEASURE: Kd (mM)
Kindly answer with a numeric value in mM, unit omitted.

COc1nccnc1CC(C)C    2.8

Let us move to another entry and its Kd.
Would you mind telling me what Kd value was observed for CCC/C=C\C=C\CCCCCCCCCO ?
0.0098

###

Molecular target: BmorPBP1 (Bombyx mori pheromone-binding protein PBP1) (Bombyx mori)
Construct: polyhistidine (his-tag, from pET15b) (N); made in house; host or cells: Escherichia coli
Sequence (P34174 23-164): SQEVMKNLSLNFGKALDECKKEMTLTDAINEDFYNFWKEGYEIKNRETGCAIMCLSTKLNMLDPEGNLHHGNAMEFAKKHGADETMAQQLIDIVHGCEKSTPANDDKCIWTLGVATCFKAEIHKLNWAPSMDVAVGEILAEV
Experiment: Fluorescence binding assay in solution (1-NPN titration and competitive displacement)
Settings: competitive displacement of 1-NPN, protein and probe 2 μM, 50 mM Tris-Cl pH 7.4; read-out: Solution Data Kd
This listing pairs molecules with measured Kd.
Give just the numeric value; µM need not be written.

Before answering, review these 2 worked examples.
C=CCc1ccc(O)c(OC)c1    2.8
CCC/C=C\C=C\CCCCCCCCC=O    1.1

Okay, now this molecule:
Please look up its Kd: CCC/C=C\C=C\CCCCCCCCCO
0.94

###

biological target: BmorPBP1 immobilized on reduced graphene oxide field-effect transistor (Bombyx mori, UniProt P34174); construct: polyhistidine (his-tag, from pET15b) (N); made in house; host or cells: Escherichia coli; test: BmorPBP1-functionalized rGO-FET biosensor (titration and kinetic runs, Langmuir model); type: binding; details: Sensor Data Kd, Titration, immobilized protein, pH 8.0, Langmuir isotherm fit
OUTCOME MEASURE: pKd
Expect pKd as a plain number equal to -log10 of the molar concentration.

Which value of pKd has been reported for C=CCc1ccc(O)c(OC)c1 in the records?
5.12

###

Molecular target: BmorPBP1 immobilized on reduced graphene oxide field-effect transistor (Bombyx mori, UniProt P34174)
Construct: polyhistidine (his-tag, from pET15b) (N); made in house; host or cells: Escherichia coli
Sequence (P34174 23-164): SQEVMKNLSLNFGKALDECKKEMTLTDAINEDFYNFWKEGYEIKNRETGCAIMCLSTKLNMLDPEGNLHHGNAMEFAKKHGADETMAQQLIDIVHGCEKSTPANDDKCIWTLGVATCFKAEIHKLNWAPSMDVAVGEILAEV
Experiment: BmorPBP1-functionalized rGO-FET biosensor (titration and kinetic runs, Langmuir model)
Assay type: binding
Details: physiological pH / pH 8
OUTCOME MEASURE: sensor response (ΔIDS), in words

CC(C)=CCC/C(C)=C/CO    very weak responses
COc1nccnc1CC(C)C    very weak responses
C=CC(C)(O)CCC=C(C)C (centres unmarked)    very weak responses
